Target: human E3 ubiquitin-protein ligase RNF31 (HOIP) (Homo sapiens)
Sequence (Q96EP0 695-1072 limits assumed): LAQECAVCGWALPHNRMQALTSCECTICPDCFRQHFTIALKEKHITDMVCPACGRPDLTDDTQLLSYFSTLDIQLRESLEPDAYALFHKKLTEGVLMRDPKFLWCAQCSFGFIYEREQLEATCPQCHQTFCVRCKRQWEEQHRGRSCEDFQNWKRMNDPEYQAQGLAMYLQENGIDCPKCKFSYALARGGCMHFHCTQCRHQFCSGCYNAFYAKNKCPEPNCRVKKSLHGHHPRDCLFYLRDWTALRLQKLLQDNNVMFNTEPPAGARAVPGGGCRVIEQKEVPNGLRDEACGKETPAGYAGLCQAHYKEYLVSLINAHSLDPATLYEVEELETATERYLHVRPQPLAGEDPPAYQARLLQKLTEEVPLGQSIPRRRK
Test: Cell-free HTRF-based HOIP inhibition assay
Type: biochemical
Consider the following compounds; for each one, report its IC50.

Reference set, count: 7
[in] Requested field: IC50. Item: CC(C)Oc1ccc(S(=N)(=O)/C=C/CNC(=O)c2cc3c([nH]c2=O)CCCC3)cc1 (centres unmarked)
[out] ≤ 1000 nM

[in] Requested field: IC50. Item: N=S(=O)(/C=C/CNC(=O)c1cc2c([nH]c1=O)CCCC2)c1ccc(OC2CC2)cc1 (centres unmarked)
[out] ≤ 100 nM

[in] Requested field: IC50. Item: O=C(NC/C=C/S(=O)(=O)c1ccccc1)c1cc2c([nH]c1=O)CCN(C(=O)c1cnn(-c3ccccc3)n1)C2
[out] ≤ 1000 nM

[in] Requested field: IC50. Item: COc1ccc(S(=N)(=O)/C=C/CNC(=O)c2cc3cnccc3[nH]c2=O)cc1F (centres unmarked)
[out] ≤ 1000 nM

[in] Requested field: IC50. Item: O=C(NC/C=C/S(=O)(=O)c1ccccc1)c1cc2c([nH]c1=O)CCN(C(=O)OC1COC1)C2
[out] ≤ 1000 nM

[in] Requested field: IC50. Item: COc1ccc(S(=O)(=O)/C=C/CNC(=O)c2cc3c([nH]c2=O)CCCCC3)cc1F
[out] ≤ 10000 nM

[in] Requested field: IC50. Item: O=C(NC/C=C/S(=O)(=O)c1ccccc1)c1cc(-c2ccccc2)c[nH]c1=O
[out] ≤ 1000 nM

Now turn to the next compound.
[in] Requested field: IC50. Item: O=C(NC/C=C/S(=O)(=O)c1ccccc1)c1cc2c([nH]c1=O)CCN(C(=O)OCCF)C2
[out] ≤ 1000 nM

---

Consider the following compounds; for each one, report its pIC50.
Target: human E3 ubiquitin-protein ligase RNF31 (HOIP) (Homo sapiens, UniProt Q96EP0)
Experiment: Cell-free HTRF-based HOIP inhibition assay
Format: biochemical
pIC50: −log10 of the molar value.

[in] Requested field: pIC50. Item: O=C(NC/C=C/S(=O)(=O)c1ccc(F)cc1F)c1cc2c([nH]c1=O)CCCC2
[out] ≥ 7.00

[in] Requested field: pIC50. Item: COc1ccc(S(=N)(=O)/C=C/CNC(=O)c2cc3ccccc3[nH]c2=O)cc1F (centres unmarked)
[out] ≥ 7.00

[in] Requested field: pIC50. Item: O=C(NC/C=C/S(=O)(=O)c1ccc(Cl)cc1)c1cc2ccccc2[nH]c1=O
[out] ≥ 7.00

[in] Requested field: pIC50. Item: O=C(NC/C=C/S(=O)(=O)c1ccc(Cl)cn1)c1cc2c([nH]c1=O)CCN(C(=O)OCC1CC1)C2
[out] ≥ 7.00

[in] Requested field: pIC50. Item: COc1ccc(S(=N)(=O)/C=C/CNC(=O)c2cc3c([nH]c2=O)CCC(OC)C3)cc1F (centres unmarked)
[out] ≥ 6.00

Please give pIC50 for each item listed below.
1. CC(/C=C/S(=O)(=O)c1ccccc1)NC(=O)c1cc2c([nH]c1=O)CCCC2 (centres unmarked)
2. Cn1ncc2c(CN3CCc4[nH]c(=O)c(C(=O)NC/C=C/S(=O)(=O)c5ccccc5)cc4C3)cccc21
3. O=C(NC/C=C/S(=O)(=O)c1ccc(Cl)cn1)c1cc2c([nH]c1=O)CCCC2

[out]
1. ≥ 4.00
2. ≥ 7.00
3. ≥ 7.00

---

Molecular target: human E3 ubiquitin-protein ligase RNF31 (HOIP) (Homo sapiens)
Assay: Cell-free HTRF-based HOIP inhibition assay
Format: biochemical
Counter-ions that a name gives are not always drawn.
quantity.name: IC50

Reference set, count: 5
[in] Requested field: IC50. Item: COc1c(C)cc(S(=N)(=O)/C=C/CNC(=O)c2cc3c([nH]c2=O)CCCC3)cc1C (centres unmarked)
[out] ≤ 1000 nM

[in] Requested field: IC50. Item: N=S(=O)(/C=C/CNC(=O)c1cc2c([nH]c1=O)CCCC2)c1ccc(-c2ccccc2)cc1 (centres unmarked)
[out] ≤ 100 nM

[in] Requested field: IC50. Item: O=C(NC/C=C/S(=O)(=O)c1ccccc1)c1cc2c([nH]c1=O)CCNC2 [Example 66, hydrochloride]
[out] ≤ 10000 nM

[in] Requested field: IC50. Item: O=C(NC/C=C/S(=O)(=O)c1ccc(F)cc1Cl)c1cc(-c2ccccc2)c[nH]c1=O
[out] ≤ 1000 nM

[in] Requested field: IC50. Item: N=S(=O)(/C=C/CNC(=O)c1cc2c([nH]c1=O)CCC(F)(F)C2)c1ccc(F)cc1 (centres unmarked)
[out] ≤ 1000 nM

Please give IC50 for each item listed below.
1. O=C(NC/C=C/S(=O)(=O)c1ccc(Cl)cc1)c1cc2c([nH]c1=O)CCN(C(=O)OCC1CC1(F)F)C2 (centres unmarked)
2. N#Cc1ccc(S(=O)(=O)/C=C/CNC(=O)c2cc3c([nH]c2=O)CCCC3)cc1
3. N#Cc1cc(S(=N)(=O)/C=C/CNC(=O)c2cc3c([nH]c2=O)CCCC3)ccc1N1CCOCC1 (centres unmarked)

[out]
1: ≤ 100 nM; 2: ≤ 100 nM; 3: ≤ 100 nM

---

Consider the following compounds; for each one, report its pIC50.
Biological target: human E3 ubiquitin-protein ligase RNF31 (HOIP) (Homo sapiens, UniProt Q96EP0)
Assay: Cell-free HTRF-based HOIP inhibition assay
Assay type: biochemical
pIC50: −log10 of the molar value.

[in] Requested field: pIC50. Item: O=C(NC/C=C/S(=O)(=O)c1ccc(F)cc1)c1cc2c([nH]c1=O)CCCCC2 [Example 35]
[out] ≥ 6.00

Please give pIC50 for each item listed below.
1. CC1(C)CC1COC(=O)N1CCc2[nH]c(=O)c(C(=O)NC/C=C/S(=O)(=O)c3ccccc3)cc2C1 (stereo not shown) [Example 73]
2. O=C(NC/C=C/S(=O)(=O)c1ccccc1)c1cc2c([nH]c1=O)CCN(Cc1cccnc1)C2 [Example 104]
3. O=C(NC/C=C/S(=O)(=O)c1ccccc1)c1cc2c([nH]c1=O)CCN(C(=O)c1nc(C3CC3)cs1)C2 [Example 116]
4. CC(C)S(=O)(=O)/C=C\CNC(=O)c1cc2c([nH]c1=O)CCCC2 [Example 20]
5. N=S(=O)(/C=C/CNC(=O)c1cc2c([nH]c1=O)CCN(C(=O)OCC1CC1)C2)c1ccc(F)cc1 (stereo not shown) [Example 68]

[out]
1. ≥ 7.00
2. ≥ 6.00
3. ≥ 7.00
4. ≥ 4.00
5. ≥ 7.00

Please give pIC50 for each item listed below.
1. COc1ccc(S(=N)(=O)/C=C/CNC(=O)c2cc3c([nH]c2=O)CCCC3)cc1C (stereo not shown) [Example 137]
2. CC(C)(C)OC(=O)N1CCc2[nH]c(=O)c(C(=O)NC/C=C/S(=O)(=O)c3ccccc3)cc2C1 [Example 10]
3. N=S(=O)(/C=C/CNC(=O)c1cc2c([nH]c1=O)CCCC2)c1cccc(OC(F)(F)F)c1 (stereo not shown) [Example 168]
4. O=C(NC/C=C/S(=O)(=O)c1ccc(Cl)cc1Cl)c1cc(-c2ccccc2)c[nH]c1=O [Example 126]
5. N=S(=O)(/C=C/CNC(=O)c1cc2c([nH]c1=O)CCCC2)Cc1ccccc1 (stereo not shown) [Example 157]

[out]
["≥ 6.00", "≥ 7.00", "≥ 7.00", "≥ 7.00", "≥ 5.00"]

Please give pIC50 for each item listed below.
1. COc1ccc(S(=N)(=O)/C=C/CNC(=O)c2cc3c([nH]c2=O)CCCC3)cc1F (stereo not shown) [Example 30]
2. O=C(NC/C=C/S(=O)(=O)c1ccc(Cl)cc1)c1cc2c([nH]c1=O)CCN(C(=O)OCC(F)F)C2 [Example 96]

[out]
["≥ 7.00", "≥ 6.00"]

Please give pIC50 for each item listed below.
1. O=C(NC/C=C/S(=O)(=O)c1ccc(F)cc1F)c1cc2c([nH]c1=O)CCCCC2 [Example 34]
2. CC1(C(=O)N2CCc3[nH]c(=O)c(C(=O)NC/C=C/S(=O)(=O)c4ccccc4)cc3C2)CCC1 [Example 115]
3. CN(C)c1ccc(S(=O)(=O)/C=C/CNC(=O)c2cc3c([nH]c2=O)CCCC3)cc1 [Example 54]

[out]
1: ≥ 6.00; 2: ≥ 6.00; 3: ≥ 6.00
